# Tested on: IL-2 secretion of Jurkat cells (PMA/Ionomycin inducing)
# Assay Remarks: ELISA method to detect IL-2 secretion induced by PMA/Ionomycin
# Format: cell-based
# Assay Context: Homo sapiens, 20 h
# Experimental: 12.5*10^3 Jurkat cells were seeded on a 96-well plate and incubated with various concentrations of compound solution for 30 min. Then, 500×PMA/Ionomycin stimulating factor was diluted with culture medium and added to the cell plate. […] The final concentrations of the compounds were 10000, 3333.3, 1111.1, 370.4, 123.5, 41.2, 13.7, 4.6, 1.5, 0 nM (The final concentration of DMSO is 0.5%). […] The final IL-2 concentration was detected by ELISA method (IL-2 Duoset, R&D Systems, DY202). […]
pIC50: −log10 of the molar value.
Label Met for high-side pIC50 (at or above 7) and Not met for low-side pIC50 (below it).

Compound	Category Label
Nc1ccccc1-c1cc(Cl)c(C(=O)Nc2cnc(-n3nccn3)c(C(F)(F)F)c2)cc1Cl [Example A111]	Not met
C#Cc1cc(F)cc(N)c1-c1cc(Cl)c(C(=O)Nc2cnc(-n3nccn3)c(Cl)c2)cc1F [Example A412]	Met
CNc1cc(F)ccc1-c1cc(F)c(C(=O)Nc2cnc(-n3nccn3)c(Cl)c2)cc1Cl [Example A127]	Not met
Cc1cc(-c2ccc(F)cc2Cl)ccc1C(=O)Nc1cnc(-n2nccn2)c(C(F)(F)F)c1 [Example A16]	Not met

Determine whether measured pIC50 meets or exceeds 7 for Nc1cc(F)ccc1-c1cc(Cl)c(C(=O)Nc2cnc(-n3nccn3)c(Cl)c2)cc1F [Example A121]
Met
